- Target Under Test: T1, human ASGR-1 mutant construct H203 (human, UniProt P07306 1-291)
- T1 construct: Arg/Glu scanning: non-arginine residues were changed to arginine; Transiently expressed on CHO-S cells
- T1 sequence: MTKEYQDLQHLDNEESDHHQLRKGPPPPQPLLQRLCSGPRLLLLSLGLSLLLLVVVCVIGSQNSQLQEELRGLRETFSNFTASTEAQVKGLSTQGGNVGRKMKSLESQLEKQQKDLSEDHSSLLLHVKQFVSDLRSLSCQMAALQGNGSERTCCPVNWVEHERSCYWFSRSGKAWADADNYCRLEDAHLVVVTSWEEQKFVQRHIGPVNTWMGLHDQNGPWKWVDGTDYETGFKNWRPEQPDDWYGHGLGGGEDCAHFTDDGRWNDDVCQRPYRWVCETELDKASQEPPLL
- Method: FACS ratio: 65C12 geomean / this mAb geomean
Endpoint Name: Expression Normalization to mAb 65C12
Field format: numeric only.

184E7 (antibody, V domains shown, mAb) VH: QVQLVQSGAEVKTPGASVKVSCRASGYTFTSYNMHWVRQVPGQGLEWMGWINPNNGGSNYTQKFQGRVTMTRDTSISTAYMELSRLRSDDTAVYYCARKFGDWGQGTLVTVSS VL: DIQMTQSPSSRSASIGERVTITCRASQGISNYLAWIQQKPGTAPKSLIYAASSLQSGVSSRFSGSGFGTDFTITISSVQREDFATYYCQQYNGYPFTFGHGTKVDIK
1.4

// moving on: another record for Expression Normalization to mAb 65C12
Which Expression Normalization to mAb 65C12 value belongs to 198D2 (antibody, V domains shown, mAb) VH: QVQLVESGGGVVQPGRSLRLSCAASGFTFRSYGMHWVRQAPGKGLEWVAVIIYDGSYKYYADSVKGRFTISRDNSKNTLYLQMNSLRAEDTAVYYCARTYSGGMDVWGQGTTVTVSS VL: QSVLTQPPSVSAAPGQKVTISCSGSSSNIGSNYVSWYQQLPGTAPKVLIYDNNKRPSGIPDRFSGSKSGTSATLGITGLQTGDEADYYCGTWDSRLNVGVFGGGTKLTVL ?
3.61
